Numbers sourced from PubChem BioAssay (NCATS).

experiment: Quantitative High-Throughput drug screen in 47 multiple myeloma cell lines against the NCATS MIPE library collection: MM1S_ATCC cell viability assay (AID 1918980); conditions: MM1S myeloma viability, CellTiter-Glo ATP luminescence, 48 h; series mostly up to 45.8 µM; further: nearly all actives have a fitted effect of over 45% in size
Records with an inconclusive call do not appear. Activity calls are given as the source filed them. The call rests on the fitted dose curve; in most records, active means well fitted cell-killing curve with a large enough effect; inconclusive means small, poorly fitted or top-dose-only effect, or effect the other way; inactive means no such curve, though single readings can be large or run the other way.
Outcome field: choose from true (1) = active, false (0) = inactive

Lookup: State the result this test recorded for `CC1(C)Cc2c(-c3ccccc3)c(-c3ccc(Cl)cc3)c(CC(=O)O)n2C1` .
Found: true (1)

Lookup: State the result this test recorded for `Cc1ccc(NC(=O)c2cccc(C(C)(C)C#N)c2)cc1Nc1ccc2ncn(C)c(=O)c2c1` .
Found: true (1)

Lookup: State the result this test recorded for `Cc1c(CCOc2ccc(C(=O)O)cc2)c2cc(Cl)ccc2n1C(c1ccccc1)c1ccccc1` .
Found: true (1)

Lookup: State the result this test recorded for `Fc1ccc(Cl)cc1-c1nc(Nc2ccncc2)c2nccnc2n1` .
Found: false (0)

Lookup: State the result this test recorded for `CCOc1ccn(-c2ccc(F)cc2)c(=O)c1C(=O)Nc1ccc(Oc2ccnc(N)c2Cl)c(F)c1` .
Found: true (1)

Lookup: State the result this test recorded for `Cc1cc(Nc2nc(N[C@@H](C)c3ncc(F)cn3)ncc2Cl)n[nH]1` .
Found: true (1)

Lookup: State the result this test recorded for `Cc1cc(-c2ccc(CC(=O)Nc3ccc(-c4cccnc4)cc3)cc2)ccn1` .
Found: false (0)

Lookup: State the result this test recorded for `CCOc1cc(N2CCC(O)CC2)ccc1Nc1ncc2c(n1)N(C)c1ccccc1C(=O)N2C` .
Found: true (1)

Lookup: State the result this test recorded for `CCn1c(-c2nonc2N)nc2cnc(Oc3cccc(NC(=O)c4ccc(OCCN5CCOCC5)cc4)c3)cc21` .
Found: true (1)

Lookup: State the result this test recorded for CC(C[N+](C)(C)C)OC(N)=O (stereo not given) .
Found: false (0)
